Origin of values: patent US20170081400A1

Target: T1, human TL1A extracellular domain with N-terminal HIS and FLAG tag (human, UniProt O95150 72-251)
T1 construct: the whole entry is named
T1 sequence: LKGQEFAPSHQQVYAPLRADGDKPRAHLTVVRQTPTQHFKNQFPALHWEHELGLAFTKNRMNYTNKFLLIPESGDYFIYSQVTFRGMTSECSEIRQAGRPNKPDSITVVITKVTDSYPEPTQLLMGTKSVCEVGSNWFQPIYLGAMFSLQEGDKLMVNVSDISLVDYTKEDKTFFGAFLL
Assay: SPR Run 4, purified Ab captured on Protein A, TL1A 5 ug/mL, timepoint 44
Measured Attribute: TL1A Binding Level (Early) (RU)
Numeric only. Scale: RU

Binder	TL1A Binding Level (Early) / RU
320-370 (antibody, human IgG1, name in Kabat numbering, V domains shown, human IgG1, lambda) VH: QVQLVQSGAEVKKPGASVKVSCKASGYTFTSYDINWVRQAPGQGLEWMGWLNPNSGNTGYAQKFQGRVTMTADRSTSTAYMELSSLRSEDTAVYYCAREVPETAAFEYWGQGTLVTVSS VL: QSVLTQPPSVSGAPGQRVTISCTSSSSDIGAGLGVHWYQQLPGTAPKLLIEGYYNRPSGVPDRFSGSKSGTSASLTITGLLPEDEGDYYCQSYDGTLWALFGGGTKLTVLG	66
320-319 (antibody, human IgG1, name in Kabat numbering, V domains shown, human IgG1, lambda) VH: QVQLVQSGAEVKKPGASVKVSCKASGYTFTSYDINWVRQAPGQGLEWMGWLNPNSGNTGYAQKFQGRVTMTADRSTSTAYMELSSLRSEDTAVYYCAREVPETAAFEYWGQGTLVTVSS VL: QSVLTQPPSVSGAPGQRVTISCTSSSSDIGAGLGVHWYQQLPGTAPKLLIEGYYNRPSGVPDRFSGSKSGTSASLTITGLLPEDEGDYYCQQYDGTLSALFGGGTKLTVLG	18

Attention now turns to another entry.
Record request: TL1A Binding Level (Early) value, item 320-367 (antibody, human IgG1, name in Kabat numbering, V domains shown, human IgG1, lambda) VH: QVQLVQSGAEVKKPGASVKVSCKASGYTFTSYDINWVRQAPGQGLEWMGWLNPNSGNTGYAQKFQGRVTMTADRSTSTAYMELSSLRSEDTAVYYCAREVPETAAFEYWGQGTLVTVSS VL: QSVLTQPPSVSGAPGQRVTISCTSSSSDIGAGLGVHWYQQLPGTAPKLLIEGYYNRPSGVPDRFSGSKSGTSASLTITGLLPEDEGDYYCQSYDGTLHALFGGGTKLTVLG
119
